B1: Far upstream element-binding protein 1, residues 98 to 169; numbered along this chain, Q96AE4 (parent)
chain: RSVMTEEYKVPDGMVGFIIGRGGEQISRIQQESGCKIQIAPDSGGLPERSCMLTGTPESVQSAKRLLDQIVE

Variants of: B1
Assay: abundance fitness (aPCA) (normalised: wild type 0, dead -1); higher = more abundant; growth selection in yeast, the domain comes from the species named
Settings: Homo sapiens
Observable: abundance fitness
Just the number, please.

Consider the variant A40R and give its recorded abundance fitness. -0.064

Consider the variant I37Y and give its recorded abundance fitness. -0.963

Consider the variant I70F and give its recorded abundance fitness. 0.024

Consider the variant V71P and give its recorded abundance fitness. -0.047

Consider the variant S33D and give its recorded abundance fitness. -0.868

Consider the variant E7L and give its recorded abundance fitness. -0.031

Consider the variant R28Y and give its recorded abundance fitness. -0.131

Consider the variant Q61V and give its recorded abundance fitness. -0.035

Consider the variant F17S and give its recorded abundance fitness. 0.063

Consider the variant F17K and give its recorded abundance fitness. 0.072

Consider the variant V71T and give its recorded abundance fitness. -0.083

Consider the variant R28M and give its recorded abundance fitness. -0.083

Consider the variant K9G and give its recorded abundance fitness. -0.195

Consider the variant E24M and give its recorded abundance fitness. -0.093

Consider the variant E32G and give its recorded abundance fitness. -0.166

Consider the variant D68Q and give its recorded abundance fitness. -0.058

Consider the variant S2N and give its recorded abundance fitness. -0.143

Consider the variant Q61W and give its recorded abundance fitness. -0.058

Consider the variant T54H and give its recorded abundance fitness. -0.056

Consider the variant C35E and give its recorded abundance fitness. -0.835

Consider the variant G34F and give its recorded abundance fitness. -0.222

Consider the variant S59R and give its recorded abundance fitness. -0.064

Consider the variant L46Y and give its recorded abundance fitness. -0.093

Consider the variant L67K and give its recorded abundance fitness. -0.653

Consider the variant M14G and give its recorded abundance fitness. -0.097

Consider the variant E58T and give its recorded abundance fitness. -0.038

Consider the variant D42F and give its recorded abundance fitness. -0.094

Consider the variant Q61T and give its recorded abundance fitness. -0.002

Consider the variant I29E and give its recorded abundance fitness. -0.781

Consider the variant I19W and give its recorded abundance fitness. -0.042

Consider the variant D12H and give its recorded abundance fitness. -0.038

Consider the variant C51W and give its recorded abundance fitness. -0.108

Consider the variant G22S and give its recorded abundance fitness. -0.1

Consider the variant T56W and give its recorded abundance fitness. -0.154

Consider the variant K9F and give its recorded abundance fitness. -0.033

Consider the variant I19A and give its recorded abundance fitness. -0.034

Consider the variant G45V and give its recorded abundance fitness. -0.111

Consider the variant I26S and give its recorded abundance fitness. -0.239
